- assay-method-text: probe aWnt5a binding to arrayed compounds – biochemical, biotinylated probe, 635/667 nm fluorescence, primary screen (AID 1113);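 further: score merges 667 nm fluorescence intensity with signal-to-noise per printed feature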
- experimental-setup: small-molecule microarray, higher = more signal
Quick reference: composite z-score of the listed items.
# respond with the number and nothing more

| molecule | assay-readout | measurement |
| --- | --- | --- |
| O=C1C2C=CC(C(O)c3ccccn3)N(Nc3ccccc3)C2C(=O)N1c1ccccc1 (stereo unspecified) | composite z-score | -0.0758 |
| COc1ccccc1CN1C(=O)c2ccccc2[C@](Cc2ccccc2I)(C(=O)NCCN2CCOCC2)[C@@H]1c1ccc(CO)cc1 | composite z-score | -0.0118 |
| CC(C)(C)OC(=O)CC[C@@]1(C(=O)N2CCCCC2)N=C(c2ccc(OCCCO)cc2)O[C@@H]1c1ccccc1CN=[N+]=[N-] | composite z-score | 0.0629 |
| C=CCNC(=O)[C@H]1[C@@H]2C(=O)O[C@@H](c3ccccc3)[C@@H](c3ccccc3)N2[C@@H](c2ccc(O)cc2)[C@]12C(=O)N(C(=O)OCCOC)c1ccc(C#CC3(O)CCCCCC3)cc12 | composite z-score | -0.0445 |
| CCOC(=O)C[C@H]1[C@H](OC(=O)c2ccc(C(=O)c3ccccc3)cc2)[C@@H](NC(=O)C2CCCCC2)c2cc(OCCCO)ccc2N1C(=O)Cc1ccc(OC)cc1 | composite z-score | -0.0907 |

Data request: What value of composite z-score has been recorded for this entry: COc1ccc([Si](C)(C)[C@H]2[C@H](CC(=O)N3CCC[C@H]3CO)O[C@@]3(C(=O)N(Cc4ccc(N5C(=O)c6cccc7cccc5c67)cc4)c4ccccc43)[C@@H]2C)cc1
Data returned: -0.0944

* * *

Quick reference: composite z-score of the listed items.
- assayed-target: Epidermal growth factor receptor (Homo sapiens)
- assay-method-text: compounds binding epidermal growth factor receptor – biochemical, small-molecule microarray, 635 nm fluorescence, primary screen (AID 1104);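 further: score merges 667 nm emission intensity with spot signal to noise over triplicate slides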
- experimental-setup: EGFR binding, higher = more signal
# respond with the number and nothing more

| compound | assay-readout | measurement |
| --- | --- | --- |
| O=C(C=C(CC(O)c1cccc(Cl)c1)OCCF)OCCF (stereo unspecified) | composite z-score | -0.737 |
| CCOC(=O)C[C@H]1[C@H](OC(=O)c2cc3ccccc3oc2=O)[C@@H](NC(=O)c2ccc3ccccc3n2)c2cc(OCCCO)ccc2N1C(=O)c1ccc2ccccc2n1 | composite z-score | 0.503 |
| C=C[C@@H](O)[C@H]1CC(c2ccccc2)=NO1 | composite z-score | 0.449 |
| CCCCC(=C=CC[C@H](O)c1cccc(OCCO)c1)C[C@H](O)COCc1ccccc1 | composite z-score | -0.572 |
| COc1ccc(C(=O)Nc2ccc3c(c2)[C@]2(O[C@@H](CCO)[C@H]([Si](C)(C)c4ccc(OC)cc4)[C@H]2C)C(=O)N3Cc2ccccc2)cc1 | composite z-score | 0.349 |

Data request: What value of composite z-score has been recorded for this entry: [N-]=[N+]=NCc1ccccc1C[C@]1(C(=O)NCCN2CCOCC2)N=C(c2ccc(OCCCO)cc2)O[C@H]1c1ccccc1
Data returned: -0.329

Data request: What value of composite z-score has been recorded for this entry: O=C1N(Cc2ccccc2)c2ccccc2[C@H]2OC(c3ccc(OCCCO)cc3)=N[C@@]12CCS(=O)(=O)c1ccccc1
Data returned: 0.385

Data request: What value of composite z-score has been recorded for this entry: CC(C)(C)N1CC=CC23O[C@@H]4C=CCCOC(=O)C4[C@H]2C(=O)N(CCCO)[C@@H]3C1=O (stereo partly specified)
Data returned: -0.608

Data request: What value of composite z-score has been recorded for this entry: CC(C)N1CC=CC23O[C@@H]4C=CCOC(=O)[C@@H]4[C@H]2C(=O)N(CCCCCCO)[C@@H]3C1=O (stereo partly specified)
Data returned: -0.997

Data request: What value of composite z-score has been recorded for this entry: CN1C(=O)C2C=CC(C(O)C3CCCCC3)N(N(c3ccccc3)c3ccccc3)C2C1=O (stereo unspecified)
Data returned: -1.34

Data request: What value of composite z-score has been recorded for this entry: C=CC[C@]1(C(=O)N2CCOCC2)N=C(c2ccc(OCCCO)cc2)O[C@H]1c1ccccc1CN=[N+]=[N-]
Data returned: -0.124

Data request: What value of composite z-score has been recorded for this entry: C=C[C@H](C)[C@H](OC(=O)Nc1ccc(SC)cc1)c1ccc(O)c2ccccc12
Data returned: -0.0236

Data request: What value of composite z-score has been recorded for this entry: COC(=O)C(CC#Cc1ccc2c(c1)[C@]1(C(=O)N2)[C@H](c2ccc(O)cc2)N2[C@H](c3ccccc3)[C@H](c3ccccc3)OC(=O)[C@H]2[C@@H]1C(N)=O)C(=O)OC
Data returned: -0.856

Data request: What value of composite z-score has been recorded for this entry: CN(C)CCCCNC(=O)[C@H]1C[C@H]2C(=O)N[C@@H](CCCC[N+](C)(C)C)C(=O)N2[C@H]1c1cccc(OCCO)c1
Data returned: 0.126

Data request: What value of composite z-score has been recorded for this entry: NC(=O)NCC#Cc1ccc2c(c1)[C@]1(C(=O)N2)[C@H](c2ccc(O)cc2)N2[C@H](c3ccccc3)[C@H](c3ccccc3)OC(=O)[C@H]2[C@@H]1C(=O)NC[C@H](O)c1ccccc1
Data returned: -1.2

Data request: What value of composite z-score has been recorded for this entry: COCCOC(=O)N1C(=O)[C@@]2(c3cc(C#CCNC(N)=O)ccc31)[C@H](c1ccc(OCCO)cc1)N1[C@H](c3ccccc3)[C@H](c3ccccc3)OC(=O)[C@H]1[C@@H]2C(=O)N1CCN(c2ncccn2)CC1
Data returned: 0.612

Data request: What value of composite z-score has been recorded for this entry: CC(C)C[C@@H]1NC(=O)[C@@]23C(=O)N[C@@H](Cc4ccccc4)C2[C@H](C)[C@@]2(C)O[C@H]2C3/C=C/C/C=C\CNC(=O)[C@@H]2CCCN2C1=O (stereo partly specified)
Data returned: 0.0731

Data request: What value of composite z-score has been recorded for this entry: NC(=O)[C@H]1[C@@H]2C(=O)O[C@@H](c3ccccc3)[C@@H](c3ccccc3)N2[C@@H](c2ccc(O)cc2)[C@]12C(=O)Nc1ccc(C#CC3(O)CCCCCC3)cc12
Data returned: 0.53

Data request: What value of composite z-score has been recorded for this entry: COc1ccc([Si](C)(C)[C@@H]2[C@@H](CC(=O)N(CCO)Cc3ccccc3)O[C@]3(C(=O)N(C)c4c(Br)cc(C)cc43)[C@H]2C)cc1
Data returned: 0.729

Data request: What value of composite z-score has been recorded for this entry: COC(=O)[C@@]1(Cc2ccccc2)[C@H]2c3cc(C(=O)N4CCCC4)n(Cc4ccccc4)c3C[C@H]2CN1C(=O)c1ccccc1
Data returned: 0.0075

Data request: What value of composite z-score has been recorded for this entry: C[N+](C)(C)CCCC[C@@H]1NC(=O)[C@@H]2C[C@H](C(=O)O)[C@H](c3cccc(OCCO)c3)N2C1=O
Data returned: -0.188
